FYI, the data here is from PubChem BioAssay (NCATS).

test_method_notes: Cell Viability - N2a (AID 540);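 also: cells exposed to compound for 40 h at 37 °C; plate controls were DMSO alone for no effect and tamoxifen control for full effect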
run_parameters: N2a mouse neuroblastoma cell viability; at 92.2 µM (top of the series)
Inconclusive results are not listed.
quantity_name: activity change, negative = cytotoxicity (%)
Could you give me the number in %? Just the number is fine.

// worked examples, activity change, negative = cytotoxicity included
CC(=O)OCCC(C)C | -1.72
CC(C)=CCl | 1.02
Nc1c(Cl)cc(Cl)cc1Cl | -11.7
CCC(=O)/C=C/C1C(C)=CCCC1(C)C (stereo not drawn) | -6.46
Clc1cc(Cl)cc(Cl)c1 | 4.86
Cc1cc(C(=O)O)ccc1[N+](=O)[O-] | 4.23
CC(C)(C)OC=O | -8.52
Cc1cc(C)cc(O)c1 | -1.73
CC(C)=C1CCC(C)CC1=O (stereo not drawn) | -3.2
CC(=C/C=C/C(C)=C/C=C/C=C(C)/C=C/C=C(C)/C=C/C(=O)O)/C=C/C(=O)O | -0.984

Challenge: Requested field: activity change, negative = cytotoxicity. Item: `C=C(C)C(=O)OCCCCCCCCCC`
Response given: 3.17

Challenge: Requested field: activity change, negative = cytotoxicity. Item: C1CCC2OC2C1 (stereo not drawn)
Response given: -14.9

Challenge: Requested field: activity change, negative = cytotoxicity. Item: `CC(=O)c1cccc([N+](=O)[O-])c1`
Response given: 0.298

Challenge: Requested field: activity change, negative = cytotoxicity. Item: `CCc1ccccc1`
Response given: -7.66

Challenge: Requested field: activity change, negative = cytotoxicity. Item: `Cc1ccc(Br)cc1`
Response given: 6.22

Challenge: Requested field: activity change, negative = cytotoxicity. Item: `CCCC=O`
Response given: -20.1

Challenge: Requested field: activity change, negative = cytotoxicity. Item: `S=C([S-])NCCNC(=S)[S-].[Zn+2]`
Response given: -5.49
